# Assayed target: CRBN (Homo sapiens, UniProt Q96SW2)
# Sequence (Q96SW2 whole entry): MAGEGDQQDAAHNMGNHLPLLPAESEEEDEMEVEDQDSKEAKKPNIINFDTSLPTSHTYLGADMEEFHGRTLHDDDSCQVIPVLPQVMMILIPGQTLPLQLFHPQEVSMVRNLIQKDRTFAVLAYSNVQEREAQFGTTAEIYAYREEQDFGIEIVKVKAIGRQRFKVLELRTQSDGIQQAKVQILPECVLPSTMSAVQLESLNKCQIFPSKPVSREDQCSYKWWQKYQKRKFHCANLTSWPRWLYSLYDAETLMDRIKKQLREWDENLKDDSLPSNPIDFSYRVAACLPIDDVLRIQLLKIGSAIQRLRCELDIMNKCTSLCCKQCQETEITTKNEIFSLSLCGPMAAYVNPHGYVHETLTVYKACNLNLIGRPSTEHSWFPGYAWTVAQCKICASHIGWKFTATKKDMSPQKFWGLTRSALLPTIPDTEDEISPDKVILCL
# Protocol summary: Western blot dose-response degradation in HEK293 cells
# Assay type: cell-based
# Parameters: Western blot data for BET, CRBN and VHL protein levels; endogenous in cells; host or cells: HEK293 (ATCC)
# Test context: HEK293 cells, 6 h, Western blot; mean ± S.E.M. of three experiments, values marked b mean ± S.D. of two
Observed property: DC50 (nM)
Express it in nM; write the number only.

| Compound | Assayed target | DC50 [nM] |
| --- | --- | --- |
| Cc1ncsc1-c1ccc(CNC(=O)[C@@H]2C[C@@H](O)CN2C(=O)[C@@H](NC(=O)COCC(C)(COCCOCCOCCOC(=O)C[C@@H]2N=C(c3ccc(Cl)cc3)c3c(sc(C)c3C)-n3c(C)nnc32)COCCOCCOCCN2CCN(c3cc4c(cc3F)C(=O)N(C3CCC(=O)NC3=O)C4=O)CC2)C(C)(C)C)cc1 (mixture of isomers) | CRBN (Homo sapiens, UniProt Q96SW2) | 730 |

Okay, next one:
Can you look up the measured DC50 of Cc1ncsc1-c1ccc(CNC(=O)[C@@H]2C[C@@H](O)CN2C(=O)[C@@H](NC(=O)COCC(C)(COCCOCCOCCNc2cccc3c2C(=O)N(C2CCC(=O)NC2=O)C3=O)COCCOCCOC(=O)C[C@@H]2N=C(c3ccc(Cl)cc3)c3c(sc(C)c3C)-n3c(C)nnc32)C(C)(C)C)cc1 (mixture of isomers) for me? 480
